Biological target: Adenosine receptor A1 (Homo sapiens) (UniProt P30542)
Sequence (whole entry): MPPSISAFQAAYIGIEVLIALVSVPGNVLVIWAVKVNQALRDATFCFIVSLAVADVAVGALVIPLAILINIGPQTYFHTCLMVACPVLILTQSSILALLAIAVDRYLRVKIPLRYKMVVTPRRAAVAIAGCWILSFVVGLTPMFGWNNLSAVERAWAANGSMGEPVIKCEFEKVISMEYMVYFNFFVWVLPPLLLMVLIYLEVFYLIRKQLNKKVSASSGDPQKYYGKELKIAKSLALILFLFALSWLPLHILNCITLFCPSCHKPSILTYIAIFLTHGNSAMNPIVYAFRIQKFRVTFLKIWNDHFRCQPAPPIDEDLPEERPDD
Assay: Percent change in cAMP content of CHO (Chinese hamster ovary) cells expressing human Adenosine A1 receptor at 0.1 uM
Type: functional, cell-based
Experimental endpoint: Change (%)

Compound: Nc1sc2c(c1C(=O)c1ccc(Br)c3ccccc13)CCCC2
Change [%]: -10
//
Compound: Nc1sc2c(c1C(=O)c1ccc3ccccc3c1)CCN(Cc1ccccc1Cl)C2
Change [%]: -20
//
Compound: Nc1sc2c(c1C(=O)c1cccc3ccccc13)CCN(Cc1ccccc1)C2
Change [%]: -7

A = Cc1sc(N)c(C(=O)c2cccc(C(F)(F)F)c2)c1C
B = Nc1sc2c(c1C(=O)c1ccc3ccccc3c1)CCC(c1ccccc1)C2 (stereo not drawn)
C = Cc1sc(N)c(C(=O)c2ccc(Br)c3ccccc23)c1C
D = COc1ccc(C2SCc3c(sc(N)c3C(=O)c3cccc4ccccc34)S2)cc1 (stereo not drawn)
E = Nc1sc2c(c1C(=O)c1ccc3ccccc3c1)CCN(Cc1cccnc1)C2
Task item: // ascending sort on recorded Change Use the labels to give the requested order.
Reply: E, A, C, B, D
(E: -12%, A: -7%, C: -1%, B: 5%, D: 16%)

1 = Cc1ccc(C(=O)c2c(N)sc3c2CCN(Cc2ccccc2)C3)c2ccccc12
2 = Nc1sc2c(c1C(=O)c1ccc(I)c3ccccc13)CCN(Cc1ccccc1)C2
Task item: Looking at recorded values for Change, does 1 or 2 come in lower? Kindly give the label for the entry you pick.
Reply: 1
